Where these numbers come from: the nanobody polyreactivity screen of Harvey et al. (2022)

# Assay Details: yeast display, Sf9 membrane polyspecificity reagent, FACS + sequencing; frameworks hold sequencing errors
Reported Metric: polyreactivity (PSR sort gate)

{"columns": ["Primary Sequence", "Experimental Value"],
 "data": [
  ["QVQLQESGGGLVQAGGSLRMSCAASGTISPLPAMGWYRQAPGKDRDFVAGIDTGAITNYADSVKGRFTISRDNAKNTVYLQMNSLKPEDTAVYYCAVFPAAYDYYERYYTYWGQGTQVTVSS", "low polyreactivity"],
  ["QVQIVESGGGLVQAGGSLRLSCASSGSTFTHYAMGWYRQAPGKERELVAGISWGGSSTYYADSVKGRFTISRDNAKNTVYLQMNSLKPEDTAVYYCAAGRRGSYPGGYGYWGQGTQVTVSS", "low polyreactivity"],
  ["QVQLVESGGGVVQAGRSLRLSCAASGRLFYEYAMGWYRQAPGKEREFVAAISYSGSRTYYADSVKGRFTISRDNAKYTVYLQLNCLIPEDTAVYYCAAVVAFGTGTFYYWGQGRQVTVSS", "high polyreactivity"],
  ["QVQLVESGGGLVQAGGSLRLSCAASGSIFKGYAMGWYRQAPGKERELVASITSSGASTYYADSGKGRFTISRDNAKNTVYLHMNSLKPEDTAVYYCATDHESVRVLVSSTSDYDYWGQGTQVTVSS", "low polyreactivity"],
  ["QVQLVESGGGLDQAGGSLRLSCAASGIIFKYYAMGWYRQAPGKERELVAAINYSGGRTYYADSVKGRFTISRDNAKNTVYLQMNSLKPEDTAVYYCAKVPAYADRGKFDYWGQGTQVTVSS", "high polyreactivity"],
  ["QVQLVESGGGLVQAGGSLRLSCAASGRIFADYAMGWYRQAPGKERELVAAIDWSDGSTKYADSVKGRFTISRDKAKNTVYLQMNSLKPEDTAVNYCAADYWPRDGLGWWYDYWGQGTQVTVSS", "low polyreactivity"],
  ["QDHLVESGGGLVQAGGTLRLSCAASGRIFVGYAMGWYRQAPGKERELVAGISRSGDSTYYADSVKGRFTISRDNAKNTVYLQMNSLKPEDTAVYYCAASWYKNQTRYYYWGQGTQVTVSS", "high polyreactivity"],
  ["QVRLVESGGGLVQAGGSLRLSCAASGRTFRIYAMGWYRQAPGKERELVAAIRWSGGTTYYADSVKGRFTISRDNAKNTVYLQMNSLKPEDTAVYYCNTNSYYEDDYWGQGTQVTVSS", "high polyreactivity"],
  ["QVQLVESGGGVVQAGGILRFSCAASGRTFAPDAMGWYRQAPGKERELDAAITNGGSTTYADSVKGRFTISRDNAKNTVYLHMNSLNPEDTAVYYCAADIVSSTDYPFDYWGQGTQVNVSS", "low polyreactivity"],
  ["QVQLVESGGGLVQAGGSLRLSCAASGRTFGRNAMGWYRQATGKERELVAPISRDGSTYYADSVKGRFTISRDNAKNTVYLQMNSLKPEDTAVYYCAADRPWYYTLTPIHGYDYWGQGTQVTVSS", "low polyreactivity"],
  ["QVQLVESAGGLVQAGGSLRLSCAASGITLSYNAMGWYRQAPGKERELVAAISARGGSTYYADSVKGRFTISRDNAKNTVYLQMNSLKPEVTAVYYCAAPRGWRQNKYDYWGQGTEVTVSS", "high polyreactivity"]
]}
